The measured values listed here are drawn from ChEMBL document CHEMBL6114988.

Procedure text: Metabolic stability in artificial intestinal fluid assessed as parent compound remaining at 1 mg/ml incubated for 8 hrs by HPLC analysis
Format: ADME
Measurement setup: read-out: Stability
Property: remaining at 8 h, 1 mg/ml (%)

{"Molecule": "O=C(c1cc(Cc2n[nH]c(=O)c3ccccc23)ccc1F)N1CCN(C(=O)C2CC2)CC1", "remaining at 8 h, 1 mg/ml [%]": 100}
{"Molecule": "COc1cc(F)ccc1-c1cc(Nc2cc(CS(C)(=N)=O)ccn2)ncc1F (stereo not drawn)", "remaining at 8 h, 1 mg/ml [%]": 97.4}
{"Molecule": "CCOc1cc(F)ccc1-c1cc(Nc2cc(CN3CCN(C(=O)c4cc(Cc5n[nH]c(=O)c6ccccc56)ccc4F)CC3)ccn2)ncn1", "remaining at 8 h, 1 mg/ml [%]": 96.7}

* * *

Measured on: Poly [ADP-ribose] polymerase 1 (Homo sapiens, UniProt P09874)
Sequence (P09874 whole entry): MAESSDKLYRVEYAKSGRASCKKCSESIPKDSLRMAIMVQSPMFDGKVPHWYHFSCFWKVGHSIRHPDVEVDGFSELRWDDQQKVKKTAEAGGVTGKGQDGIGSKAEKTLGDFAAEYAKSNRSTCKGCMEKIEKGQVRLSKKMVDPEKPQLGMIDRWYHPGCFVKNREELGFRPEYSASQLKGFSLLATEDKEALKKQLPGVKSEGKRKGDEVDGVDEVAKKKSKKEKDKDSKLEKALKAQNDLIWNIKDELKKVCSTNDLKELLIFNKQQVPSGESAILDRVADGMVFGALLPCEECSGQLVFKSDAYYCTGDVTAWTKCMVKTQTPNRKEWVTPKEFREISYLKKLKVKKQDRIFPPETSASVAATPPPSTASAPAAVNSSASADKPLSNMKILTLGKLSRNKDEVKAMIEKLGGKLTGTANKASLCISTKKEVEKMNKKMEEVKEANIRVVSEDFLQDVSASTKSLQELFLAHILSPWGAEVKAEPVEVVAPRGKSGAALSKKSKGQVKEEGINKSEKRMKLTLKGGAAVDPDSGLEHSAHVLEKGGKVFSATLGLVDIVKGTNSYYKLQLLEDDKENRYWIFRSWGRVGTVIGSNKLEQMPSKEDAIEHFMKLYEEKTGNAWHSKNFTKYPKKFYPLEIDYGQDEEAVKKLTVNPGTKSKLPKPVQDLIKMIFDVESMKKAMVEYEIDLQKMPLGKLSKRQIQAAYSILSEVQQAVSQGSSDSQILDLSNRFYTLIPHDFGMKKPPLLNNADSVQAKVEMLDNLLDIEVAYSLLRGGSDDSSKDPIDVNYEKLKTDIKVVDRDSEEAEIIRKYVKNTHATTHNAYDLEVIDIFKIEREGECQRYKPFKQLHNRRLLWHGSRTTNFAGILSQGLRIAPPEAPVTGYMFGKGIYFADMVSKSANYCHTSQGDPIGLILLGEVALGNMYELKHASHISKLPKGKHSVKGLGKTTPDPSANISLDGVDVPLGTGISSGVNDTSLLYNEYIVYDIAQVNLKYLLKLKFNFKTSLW
Property: IC50 (nM)

Example entries begin here.
{"Smiles structure": "COc1cc(F)ccc1-c1cc(Nc2cc(CN3CCN(C(=O)c4cc(Cc5n[nH]c(=O)c6ccccc56)ccc4F)CC3)ccn2)ncc1F", "Property": "IC50", "Recorded value": 43}
{"Smiles structure": "COc1ccc(-c2cc(Nc3cc(CN4CCN(C(=O)c5cc(Cc6n[nH]c(=O)c7ccccc67)ccc5F)CC4)ccn3)ncn2)c(OC)c1", "Property": "IC50", "Recorded value": 10}
{"Smiles structure": "CCOc1cc(F)ccc1-c1cc(Nc2cc(CN3CCN(C(=O)c4cc(Cc5n[nH]c(=O)c6ccccc56)ccc4F)CC3)ccn2)ncc1F", "Property": "IC50", "Recorded value": 32}
{"Smiles structure": "O=C(c1cc(Cc2n[nH]c(=O)c3ccccc23)ccc1F)N1CCN(Cc2ccnc(Nc3cc(-c4ccc(F)c5ccoc45)c(F)cn3)c2)CC1", "Property": "IC50", "Recorded value": 118}
{"Smiles structure": "O=C(c1cc(Cc2n[nH]c(=O)c3ccccc23)ccc1F)N1CCN(Cc2ccnc(Nc3cc(-c4ccc(F)c5ccoc45)ncn3)c2)CC1", "Property": "IC50", "Recorded value": 107}

a: COc1ccc(OC)c(-c2cc(Nc3cc(CN4CCN(C(=O)c5cc(Cc6n[nH]c(=O)c7ccccc67)ccc5F)CC4)ccn3)ncn2)c1
b: COc1cc(F)ccc1-c1nc(Nc2cc(CN3CCN(C(=O)c4cc(Cc5n[nH]c(=O)c6ccccc56)ccc4F)CC3)ccn2)ncc1F
c: COc1ccc(F)cc1-c1cc(Nc2cc(CN3CCN(C(=O)c4cc(Cc5n[nH]c(=O)c6ccccc56)ccc4F)CC3)ccn2)ncc1F
Descending sort on IC50 required. // list labels; follow requested order b, c, a
(b: 91 nM, c: 48 nM, a: 14 nM)
